Cited source: paper PMC3885398

- tested.on: FLT3 D835Y (Homo sapiens, UniProt P36888, D835Y)
- protocol.summary: Invitrogen SelectScreen kinase profiling / IC50
- Type: biochemical
- experimental.conditions: FLT3-D835Y; Invitrogen SelectScreen kinase assay
pIC50: −log10 of the molar value.
measured.property: pIC50

• CCc1cc(NC(=O)NCc2ccc(-c3cc(NC(=O)c4ccc(CN5CCN(C)CC5)cc4)[nH]n3)cc2)no1 = 7.72

----------
- tested.on: Aurora B kinase (Homo sapiens, UniProt Q96GD4)
- Sequence (Q96GD4 whole entry): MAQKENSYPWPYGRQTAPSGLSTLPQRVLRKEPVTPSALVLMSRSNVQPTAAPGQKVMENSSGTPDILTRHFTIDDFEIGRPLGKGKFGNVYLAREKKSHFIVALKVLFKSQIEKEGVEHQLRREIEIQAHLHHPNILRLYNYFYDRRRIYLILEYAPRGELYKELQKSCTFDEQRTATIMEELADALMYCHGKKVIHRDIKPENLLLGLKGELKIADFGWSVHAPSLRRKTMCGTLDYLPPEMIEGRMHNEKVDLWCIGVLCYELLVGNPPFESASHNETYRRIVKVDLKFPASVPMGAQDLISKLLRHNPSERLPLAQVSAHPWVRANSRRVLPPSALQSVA
pIC50: −log10 of the molar value.
measured.property: pIC50

• CCc1cc(NC(=O)NCc2ccc(-c3cc(NC(=O)c4ccc(CN5CCN(C)CC5)cc4)[nH]n3)cc2)no1 [BPR1J-340] = 5.87
